Source of measurements: ChEMBL document CHEMBL3885881

// reported ERYTHROCYTE COUNT per item
Species: Rattus norvegicus
assay-explanation: DrugMatrix - Regimen: Daily Repeat
Assay type: toxicity, organism-based, Sprague-Dawley
Set-up: regimen Daily Repeat, gender Male, age 6-8 weeks
stated-conditions: in vivo, po, 50 mg/kg, 120 h, tissue Blood, route oral GAVAGE, dose level Low, time 5 day, vehicle .5 % CMC
assay-readout: ERYTHROCYTE COUNT (x10E6/uL)

# molecule, unit-name, assay-value
rows = [
    ("CN(C)[C@@H]1C(O)=C(C(N)=O)C(=O)[C@@]2(O)C(O)=C3C(=O)c4c(O)ccc(Cl)c4[C@@](C)(O)[C@H]3C[C@@H]12 [CHLORTETRACYCLINE]", "x10E6/uL", 5.53),
    ("Cc1cccc(C)c1OCC(C)N (centres undefined) [MEXILETINE]", "x10E6/uL", 5.61),
    ("NC1CCN(c2nc3c(cc2F)c(=O)c(C(=O)O)cn3-c2ccc(F)cc2F)C1 (centres undefined) [TOSUFLOXACIN]", "x10E6/uL", 6.08),
    ("CCN1CCC[C@H]1CNC(=O)c1cc(S(N)(=O)=O)ccc1OC [LEVOSULPIRIDE]", "x10E6/uL", 6.32),
]

====

Species on record: Rattus norvegicus
assay-explanation: DrugMatrix - Regimen: Daily Repeat
Type: toxicity, organism-based, Sprague-Dawley
Parameters: regimen Daily Repeat, gender Male, age 6-8 weeks
stated-conditions: in vivo, po, 0 mg/kg, 72 h, tissue Blood, route oral GAVAGE, dose level Control, time 3 day, vehicle 100 % WATER
Below: a set of entries, each annotated with reported LYMPHOCYTE.

# compound, unit-name, LYMPHOCYTE
measured = [
    ("NNc1nncc2ccccc12 [HYDRALAZINE]", "%", 88.5),
    ("Cc1ccc(NC(=O)c2ccc(CN3CCN(C)CC3)cc2)cc1Nc1nccc(-c2cccnc2)n1 [IMATINIB]", "%", 89),
    ("CN1[C@@H]2CC[C@H]1C[C@@H](OC(=O)C(CO)c1ccccc1)C2 (some centres undefined) [ATROPINE]", "%", 89),
    ("Oc1cccc(O)c1O [PYROGALLOL]", "%", 82.33),
]

====

Measured PHOSPHORUS, listed per entry for reference.
Species on record: Rattus norvegicus
assay-explanation: DrugMatrix - Regimen: Daily Repeat
Assay type: toxicity, organism-based, Sprague-Dawley
Set-up: regimen Daily Repeat, gender Male, age 6-8 weeks
stated-conditions: in vivo, po, 0 mg/kg, 120 h, tissue Plasma, route oral GAVAGE, dose level Control, time 5 day, vehicle 100 % WATER

# molecule, PHOSPHORUS / mg/dL
records = [
    ("C[C@]12C=CC(=O)C=C1CC[C@@H]1[C@@H]2[C@@H](O)C[C@@]2(C)[C@H]1CC[C@]2(O)C(=O)CO", 10.68),
    ("Cc1ccc(NC(=O)c2ccc(CN3CCN(C)CC3)cc2)cc1Nc1nccc(-c2cccnc2)n1", 12.17),
    ("O.O.O.O.O.O.[Cl-].[Cl-].[Sr+2] [STRONTIUM CHLORIDE HEXAHYDRATE]", 12.17),
    ("CCN(CC)CCNC(=O)c1cc(S(C)(=O)=O)ccc1OC [TIAPRIDE]", 12.17),
]

====

The molecules listed here are annotated with their NUCLEATED RED BLOOD CELLS.
Organism: Rattus norvegicus
assay-explanation: DrugMatrix - Regimen: Daily Repeat
Assay type: toxicity, organism-based, Sprague-Dawley
Design: regimen Daily Repeat, gender Male, age 6-8 weeks
stated-conditions: in vivo, po, 2000 mg/kg, 120 h, tissue Blood, route oral GAVAGE, dose level High, time 5 day, vehicle .5 % CMC

# molecule, NUCLEATED RED BLOOD CELLS
rows = [
    ("COc1cc2nc(N3CCN(C(=O)c4ccco4)CC3)nc(N)c2cc1OC [PRAZOSIN]", "0 /100WBC"),
    ("CC1(C)S[C@@H]2[C@H](NC(=O)[C@H](N)c3ccccc3)C(=O)N2[C@H]1C(=O)O [AMPICILLIN]", "0 /100WBC"),
    ("CN/C(=N/CCSCc1nc[nH]c1C)NC#N [CIMETIDINE]", "0 /100WBC"),
    ("O=C1Nc2ccc(Cl)cc2C(c2ccccc2Cl)=NC1O (centres undefined) [LORAZEPAM]", "0 /100WBC"),
]

====

Species: Rattus norvegicus
assay-explanation: DrugMatrix - Regimen: Daily Repeat
Type: toxicity, organism-based, Sprague-Dawley
Design: regimen Daily Repeat, gender Male, age 6-8 weeks
stated-conditions: in vivo, po, 50 mg/kg, 72 h, tissue Blood, route oral GAVAGE, dose level Low, time 3 day, vehicle .5 % CMC

# molecule, unit-name, MEAN CORPUSCULAR VOLUME
rows = [
    ("CN(C)[C@@H]1C(O)=C(C(N)=O)C(=O)[C@@]2(O)C(O)=C3C(=O)c4c(O)ccc(Cl)c4[C@@](C)(O)[C@H]3C[C@@H]12", "fL", 62.87),
    ("NC1CCN(c2nc3c(cc2F)c(=O)c(C(=O)O)cn3-c2ccc(F)cc2F)C1 (centres undefined)", "fL", 56.3),
    ("CCN1CCC[C@H]1CNC(=O)c1cc(S(N)(=O)=O)ccc1OC [LEVOSULPIRIDE]", "fL", 60.4),
    ("Cc1cccc(C)c1OCC(C)N (centres undefined)", "fL", 62.9),
]

====

Organism: Rattus norvegicus
assay-explanation: DrugMatrix - Regimen: Daily Repeat
Assay type: toxicity, organism-based, Sprague-Dawley
Parameters: regimen Daily Repeat, gender Male, age 6-8 weeks
stated-conditions: in vivo, po, 0 mg/kg, 72 h, tissue Plasma, route oral GAVAGE, dose level Control, time 3 day, […]
// reported ALKALINE PHOSPHATASE per item
assay-readout: ALKALINE PHOSPHATASE

# compound, assay-value
data = [
    ("CO[C@H]1/C=C/O[C@@]2(C)Oc3c(C)c(O)c4c(O)c(c(/C=N/N5CCN(C6CCCC6)CC5)c(O)c4c3C2=O)NC(=O)/C(C)=C\\C=C\\[C@H](C)[C@H](O)[C@@H](C)[C@@H](O)[C@@H](C)[C@H](OC(C)=O)[C@@H]1C", "437.83 u/L"),
    ("CC(C)(C)NC(=O)[C@H]1CC[C@H]2[C@@H]3CC[C@H]4NC(=O)C=C[C@]4(C)[C@H]3CC[C@]12C [FINASTERIDE]", "378.67 u/L"),
    ("Clc1ccc(COC(Cn2ccnc2)c2ccc(Cl)cc2Cl)cc1 (centres undefined)", "607.67 u/L"),
    ("COc1cc(N)c(Cl)cc1C(=O)NC1CCN(CCCOc2ccc(F)cc2)CC1OC (centres undefined) [CISAPRIDE]", "375 u/L"),
]

====

Species: Rattus norvegicus
assay-explanation: DrugMatrix - Regimen: Daily Repeat
Type: toxicity, organism-based, Sprague-Dawley
Design: regimen Daily Repeat, gender Male, age 6-8 weeks
stated-conditions: in vivo, po, 0 mg/kg, 72 h, tissue Plasma, route oral GAVAGE, dose level Control, time 3 day, vehicle 100 % WATER
Binarize CHOLESTEROL at 70 mg/dL; below is Yes, at or above is No.

# compound, class
measured = [
    ("CC(C)(C)CC(C)(C)c1ccc(OCCOCC[N+](C)(C)Cc2ccccc2)cc1.[Cl-] [BENZETHONIUM CHLORIDE]", "No"),
    ("Oc1cccc(O)c1O", "Yes"),
    ("Cn1c(=O)c2[nH]cnc2n(C)c1=O.O", "No"),
]

====

Organism: Rattus norvegicus
assay-explanation: DrugMatrix - Regimen: Daily Repeat
Assay type: toxicity, organism-based, Sprague-Dawley
Design: regimen Daily Repeat, gender Male, age 6-8 weeks
stated-conditions: in vivo, po, 1500 mg/kg, 72 h, tissue Plasma, route oral GAVAGE, dose level High, time 3 day, vehicle .5 % CMC
Reported CHOLESTEROL values for a set of compounds
assay-readout: CHOLESTEROL (mg/dL)

# compound, assay-readout, unit-name, assay-value
measured = [
    ("CC(C)=CCC/C(C)=C/CO [GERANIOL]", "CHOLESTEROL", "mg/dL", 46.33),
    ("COC(=O)Nc1nc2ccc([S+]([O-])c3ccccc3)cc2[nH]1 (stereo not given) [OXFENDAZOLE]", "CHOLESTEROL", "mg/dL", 67.67),
    ("CC(C)Oc1ccc2c(=O)c(-c3ccccc3)coc2c1 [IPRIFLAVONE]", "CHOLESTEROL", "mg/dL", 68.67),
    ("CN(C)[C@@H]1C(O)=C(C(N)=O)C(=O)[C@@]2(O)C(O)=C3C(=O)c4c(O)ccc(Cl)c4[C@@](C)(O)[C@H]3C[C@@H]12 [CHLORTETRACYCLINE]", "CHOLESTEROL", "mg/dL", 70.33),
    ("O=c1cnn([C@@H]2O[C@H](CO)[C@@H](O)[C@H]2O)c(=O)[nH]1 [6-AZAURIDINE]", "CHOLESTEROL", "mg/dL", 69.33),
]
